Protocol Summary: Metabolism in Fresh Human Blood
Format: in vitro ADME
Settings: fresh heparinized human blood, Mean ± SD of 3 subjects, 100 μM, 37° C., read-out: Half-life
Property Measured: half-life at 100 µM (min)
Use min as the unit, but write only the number.

Request: Please report the recorded half-life at 100 µM for "COc1cc(N)c(Cl)cc1C(=O)N[C@@H]1CCN(CCCCCC(=O)O[C@H]2CN3CCC2CC3)C[C@@H]1OC" .
Result: 8.59

###

Tested On: 5-HT4 Receptor (Cavia porcellus, UniProt O70528)
Protocol Summary: 5-HT4 receptor binding of the isomers of compound I, radiolabel displacement method
Settings: read-out: binding constant Ki
Property Measured: Ki (nM)
Use nM as the unit, but write only the number.

Request: Please report the recorded Ki for "COc1cc(N)c(Cl)cc1C(=O)N[C@@H]1CCN(CCCCCC(=O)O[C@@H]2CN3CCC2CC3)C[C@@H]1OC" .
Result: 3.4

Request: Please report the recorded Ki for "COc1cc(N)c(Cl)cc1C(=O)N[C@@H]1CCN(CCCCCC(=O)O[C@H]2CN3CCC2CC3)C[C@@H]1OC" .
Result: 1.4

Request: Please report the recorded Ki for "COc1cc(N)c(Cl)cc1C(=O)N[C@H]1CCN(CCCCCC(=O)O[C@H]2CN3CCC2CC3)C[C@H]1OC" .
Result: 28

Request: Please report the recorded Ki for "COc1cc(N)c(Cl)cc1C(=O)N[C@H]1CCN(CCCCCC(=O)O[C@@H]2CN3CCC2CC3)C[C@H]1OC" .
Result: 72
